Where do the numbers come from? From the RepoRT retention time repository.

Assay: RP, Waters ACQUITY Premier BEH C18, 100 × 2.1 mm, 1.7 µm, 40 °C, 0.3 to 0.4 mL/min, estimated dead time 0.73 min; A: water + 0.1% formic acid; B: acetonitrile + 0.1% formic acid; gradient (min/%B) 0/0.5 0.1/0.5 10/80 10.1/99.5 12/0.5 12.1/0.5 14.5/0.5
Conditions: stereoisomer not certain
Examples of molecules with documented LC retention time follow.
State just the number; it will be interpreted in min.

Task: Tell us which LC retention time value is on record for O=C(O)c1cc(=O)c2ccccc2[nH]1 [KYNURENATE]
Result: 4.18

Task: Tell us which LC retention time value is on record for CC12CCC(=O)C=C1CCC1C2C(O)CC2(C)C(C(=O)CO)CCC12 (centres undefined)
Result: 6.67

Task: Tell us which LC retention time value is on record for O=C(O)CNC(=O)c1cccc(O)c1 [3-HYDROXYHIPPURIC ACID]
Result: 3.03

Consider the additional molecule presented here.
Task: Tell us which LC retention time value is on record for CCCCC(N)C(=O)O (centres undefined)
Result: 2.79

---

Assay: RP, Waters ACQUITY Premier BEH C18, 100 × 2.1 mm, 1.7 µm, 40 °C, 0.3 to 0.4 mL/min, estimated dead time 0.73 min; A: water + 0.1% formic acid; B: acetonitrile + 0.1% formic acid; gradient (min/%B) 0/0.5 0.1/0.5 10/80 10.1/99.5 12/0.5 12.1/0.5 14.5/0.5
Details: stereoisomer not certain
Examples of molecules with documented LC retention time follow.
Units required after the number.

Solved entries (count: 2):
Task: Tell us which LC retention time value is on record for O=c1c(-c2ccc(O)cc2)coc2cc(OC3OC(CO)C(O)C(O)C3O)ccc12 (stereo unspecified)
Result: 4.08 min

Task: Tell us which LC retention time value is on record for O=C(O)Cc1cnc[nH]1 [4-IMIDAZOLEACETATE]
Result: 0.92 min

New cases:
Task: Tell us which LC retention time value is on record for CC1NC(=O)NC1CCCCCC(=O)O (stereo unspecified)
Result: 4.85 min

Task: Tell us which LC retention time value is on record for O=C(O)C1(O)CC(O)C(O)C(O)C1 (stereo unspecified) [QUINATE]
Result: 0.92 min

Task: Tell us which LC retention time value is on record for NC(CCCC(=O)O)C(=O)O (stereo unspecified) [AMINOADIPATE]
Result: 0.943 min

Task: Tell us which LC retention time value is on record for O=c1c(O)c(-c2ccc(O)cc2)oc2cc(O)cc(O)c12
Result: 6.13 min

---

Examples of molecules with documented LC retention time follow.
Assay: RP, Waters ACQUITY Premier BEH C18, 100 × 2.1 mm, 1.7 µm, 40 °C, 0.3 to 0.4 mL/min, estimated dead time 0.73 min; A: water + 0.1% formic acid; B: acetonitrile + 0.1% formic acid; gradient (min/%B) 0/0.5 0.1/0.5 10/80 10.1/99.5 12/0.5 12.1/0.5 14.5/0.5
Details: stereoisomer not certain
State just the number; it will be interpreted in min.

Task: Tell us which LC retention time value is on record for O=C(O)C1OC(Oc2c(-c3ccc(O)c(O)c3)oc3cc(O)cc(O)c3c2=O)C(O)C(O)C1O (stereo unspecified) [QUERCETIN 3-O-GLUCURONIDE]
Result: 4.41

Task: Tell us which LC retention time value is on record for CC(C)(COP(=O)(O)OP(=O)(O)OCC1OC(n2cnc3c(N)ncnc32)C(O)C1O)C(O)C(=O)NCCC(=O)NCCS (stereo unspecified)
Result: 3.69

Task: Tell us which LC retention time value is on record for O=C1OCC(Cc2cccc(O)c2)C1Cc1cccc(O)c1 (stereo unspecified)
Result: 6.68

Task: Tell us which LC retention time value is on record for COc1cc2ccc(=O)oc2cc1OC
Result: 5.34

Task: Tell us which LC retention time value is on record for Nc1ncnc2c1ncn2C1OC(CO)C2OP(=O)(O)OC21 (stereo unspecified) [ADENOSINE 2',3'-CYCLIC PHOSPHATE]
Result: 2.8

Task: Tell us which LC retention time value is on record for CC(=O)NC(CC(C)C)C(=O)O (stereo unspecified)
Result: 4.88

New cases:
Task: Tell us which LC retention time value is on record for COc1cccc(OC)c1C(=O)O
Result: 4.71

Task: Tell us which LC retention time value is on record for O=c1[nH]cnc2c1ncn2C1OC(CO)C(O)C1O (stereo unspecified)
Result: 3.37

Task: Tell us which LC retention time value is on record for CC(CCC(=O)O)C1CCC2C3C(=O)CC4CC(O)CCC4(C)C3CC(O)C12C (stereo unspecified) [7-KETODEOXYCHOLATE]
Result: 6.88

Task: Tell us which LC retention time value is on record for N[C@@H](Cc1cc(I)c(Oc2ccc(O)cc2)c(I)c1)C(=O)O
Result: 5.64

Task: Tell us which LC retention time value is on record for O=C([O-])C(O)Cc1ccc(O)c(O)c1.[Na+] (stereo unspecified) [3-(3,4-DIHYDROXYPHENYL)LACTIC ACID]
Result: 3.74
